Below are Ki values recorded for Prostaglandin E2 receptor EP2 subtype (Homo sapiens).
quantity: Ki (nM)

Below are worked cases with known answers.
INSERT INTO measurements (chem_smiles, quantity, assay_value) VALUES
  ('Cc1sc(C)c(C(=O)N[C@@H](C)c2ccc(C(=O)O)cc2)c1Cc1cccc(Cl)c1', 'Ki', 467),
  ('O=C(O)c1ccc(CNC(=O)c2c(Cl)sc(Cl)c2Cc2cccc(Cl)c2)cc1', 'Ki', 43);

[P] Cc1sc(C)c(C(=O)N[C@@H](C)c2ccc(C(=O)O)cc2)c1Cc1ccc(C(F)(F)F)cc1
[Q] C[C@H](NC(=O)c1cscc1Cc1cccc(Cl)c1)c1ccc(C(=O)O)cc1
Qu. Sorting ascending by Ki, which comes first: P or Q ? Mark your selection by writing its label.
Ans. Q
(Q: 16 nM, P: 1190 nM)

---

Molecular target: Prostaglandin D2 receptor 2 (Homo sapiens)
Sequence (Q9Y5Y4 whole entry): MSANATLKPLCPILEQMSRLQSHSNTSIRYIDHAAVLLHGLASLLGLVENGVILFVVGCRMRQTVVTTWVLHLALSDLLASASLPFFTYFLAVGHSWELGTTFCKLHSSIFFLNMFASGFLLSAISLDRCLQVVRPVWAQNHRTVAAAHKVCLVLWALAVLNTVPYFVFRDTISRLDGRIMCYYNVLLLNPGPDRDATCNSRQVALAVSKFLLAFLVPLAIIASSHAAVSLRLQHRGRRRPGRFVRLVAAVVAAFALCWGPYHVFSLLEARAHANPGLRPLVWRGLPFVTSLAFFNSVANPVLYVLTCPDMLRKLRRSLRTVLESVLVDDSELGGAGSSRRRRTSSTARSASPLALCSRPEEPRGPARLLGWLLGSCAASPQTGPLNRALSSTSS
Experiment: Displacement of [3H]PGD2 from human DP2 receptor expressed in HEK293-EBNA cells by scintillation counting
quantity: Ki

Prostaglandin D2 receptor 2 (Homo sapiens) Ki of Cc1sc(C)c(C(=O)N[C@@H](C)c2ccc(C(=O)O)cc2)c1Cc1cccc(C(F)(F)F)c1 is > 3.46 µM

Bench note, Prostaglandin D2 receptor 2 (Homo sapiens): entry C[C@H](NC(=O)c1c(Cl)sc(Cl)c1Cc1cccc(Cl)c1)c1ccc(C(=O)O)cc1 , its Ki = > 0.456 µM

Tested system Prostaglandin D2 receptor 2 (Homo sapiens); Ki recorded for Cc1sc(C)c(C(=O)NC2(c3ccc(-c4nn[nH]n4)cc3)CC2)c1Cc1ccc(C(F)(F)F)cc1 was > 0.501 µM

Note to self: Ki of Cc1sc(C)c(C(=O)N[C@@H](C)c2ccc(C(=O)O)cc2)c1Cc1cccc(Cl)c1 with Prostaglandin D2 receptor 2 (Homo sapiens) was > 2.23 µM

---

molecular target: Prostaglandin D2 receptor (Homo sapiens); experiment: Displacement of [3H]PGD2 from human DP1 receptor expressed in HEK293-EBNA cells by scintillation counting
Sequence (Q13258 whole entry): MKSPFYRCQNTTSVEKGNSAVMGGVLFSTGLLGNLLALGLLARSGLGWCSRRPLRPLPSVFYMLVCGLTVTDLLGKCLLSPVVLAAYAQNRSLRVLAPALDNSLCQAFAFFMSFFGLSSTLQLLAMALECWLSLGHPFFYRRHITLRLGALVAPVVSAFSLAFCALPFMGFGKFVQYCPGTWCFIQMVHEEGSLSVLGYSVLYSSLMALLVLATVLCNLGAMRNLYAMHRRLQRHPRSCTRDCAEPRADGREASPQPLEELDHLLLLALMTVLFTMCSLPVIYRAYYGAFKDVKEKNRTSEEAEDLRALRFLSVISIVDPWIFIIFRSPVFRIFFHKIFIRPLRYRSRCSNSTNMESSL
quantity: Ki

As a guide, the following entries are already answered.
INSERT INTO results (chem_smiles, assay_value) VALUES
  ('C[C@H](NC(=O)c1c(Cl)sc(Cl)c1Cc1cccc(Cl)c1)c1ccc(C(=O)O)cc1', '> 456 nM'),
  ('Cc1sc(C)c(C(=O)N[C@@H](C)c2ccc(C(=O)O)cc2)c1Cc1ccc(Cl)cc1', '> 2120 nM'),
  ('Cc1sc(C)c(C(=O)NC2(c3ccc(-c4nn[nH]n4)cc3)CC2)c1Cc1ccc(C(F)(F)F)cc1', '> 501 nM'),
  ('C[C@@H](NC(=O)c1c(Cl)sc(Cl)c1Cc1cccc(Cl)c1)c1ccc(C(=O)O)cc1', '> 224 nM');

Entry Cc1sc(C)c(C(=O)N[C@@H](C)c2ccc(C(=O)O)cc2)c1Cc1cccc(Cl)c1 — recorded Ki = > 2230 nM
